# PROTOCOL_TEXT: Plasma pharmacokinetics after single oral dose of Δ8-THCV in MCT oil (LC-MS/MS, non-compartmental analysis)
# Type: in vivo, human
# CONDITIONS: human, plasma, oral, 200 mg, 4 h; 200 mg Δ8-THCV dose; Mean (SD, %CV)
RECORDED_METRIC: concentration at 4 h (µg/mL)
Give the quantity in µg/mL, number only.

Exam item: Give the measured concentration at 4 h of CCCc1cc(O)c2c(c1)OC(C)(C)[C@@H]1CC=C(C(=O)O)C[C@@H]21 [Δ8-THCV-COOH, 11-nor-9-carboxy-Δ8-THCV] .
Marked response: 1.3

Exam item: Give the measured concentration at 4 h of CCCc1cc(O)c2c(c1)OC(C)(C)[C@@H]1CCC(C(=O)O)=C[C@@H]21 [Δ9-THCV-COOH, 11-nor-9-carboxy-Δ9-THCV] .
Marked response: 0.0371

Exam item: Give the measured concentration at 4 h of CCCCCc1cc(O)c2c(c1)OC(C)(C)[C@@H]1CC=C(C(=O)O)CC21 (single isomer, unassigned; (+)) [Δ8-THC-COOH, (+)-11-nor-Δ8-THC-9-carboxylic acid] .
Marked response: 0.0013

Exam item: Give the measured concentration at 4 h of CCCc1cc(O)c2c(c1)OC(C)(C)[C@@H]1CC=C(C)C[C@@H]21 [Δ8-THCV, Δ8-tetrahydrocannabivarin] .
Marked response: 0.0294

Exam item: Give the measured concentration at 4 h of CCCc1cc(O)c2c(c1)OC(C)(C)[C@@H]1CCC(C)=C[C@@H]21 [Δ9-THCV, Δ9-tetrahydrocannabivarin] .
Marked response: 0.0009

Exam item: Give the measured concentration at 4 h of CCCc1cc(O)c2c(c1)OC(C)(C)[C@@H]1CC=C(CO)C[C@@H]21 (racemic) [11-OH-Δ8-THCV, (±)-11-hydroxy-Δ8-THCV] .
Marked response: 0.0052
